# Tested on: C33A
# procedure-details: Primary qHTS to identify gynecologic anti-cancer compounds using libraries of approved drugs and bioactive compounds (AID 1345084); note: nearly all actives have a fitted effect of over 55% in size
# protocol-conditions: Gynecologic cancer cell panel viability, ATPlite luminescence, 48 h; series mostly up to 57.5 µM
Inconclusive results are not listed. The source made the active and inactive calls. Calls come from the whole dose curve; as a rule, active = well fitted cell-killing curve with a large enough effect; inconclusive = small, poorly fitted or top-dose-only effect, or effect the other way; inactive = flat fitted curve, though single readings scatter.
Labels: True for active, False for inactive

# compound, assigned-label
data = [
    ("C=CC[N+]1([C@H]2C[C@H]3[C@@H]4CC[C@H]5C[C@H](OC(C)=O)[C@@H](N6CCCCC6)C[C@]5(C)[C@H]4CC[C@]3(C)[C@H]2OC(=O)CC)CCCCC1", "False"),
    ("Cc1oc(-c2ccccc2)nc1CCC(=O)c1ccc(CC2SC(=O)NC2=O)cc1 (stereo not drawn)", "False"),
    ("Cc1c(N)cccc1C(F)(F)F", "False"),
    ("OCc1cccnc1", "False"),
    ("CC[C@@H]([C@H](C)O)n1ncn(-c2ccc(N3CCN(c4ccc(OC[C@@H]5CO[C@@](Cn6cncn6)(c6ccc(F)cc6F)C5)cc4)CC3)cc2)c1=O", "True"),
    ("O=C(O)Cc1ccccc1Oc1ccc(Cl)cc1Cl", "False"),
    ("O=C1c2ccccc2CCc2ccccc21", "False"),
    ("CO[C@@H]1[C@@H](O[C@@H]2O[C@H](C)[C@@H](O[C@H]3C[C@@](C)(O)[C@@H](O)[C@H](C)O3)[C@H](N(C)C)[C@H]2O)[C@@H](CC=O)C[C@@H](C)[C@@H](O[C@@H]2CC[C@H](N(C)C)[C@@H](C)O2)/C=C/C=C/C[C@@H](C)OC(=O)C[C@H]1OC(C)=O", "False"),
]

====

# Test system: DIV17
# procedure-details: qHTS profiling for inhibitors of Plasmodium falciparum proliferation (AID 504749); note: nearly all actives have a fitted effect of over 60% in size
# protocol-conditions: P. falciparum in erythrocytes, SYBR Green DNA, 72 h; series mostly up to 28.7 µM
Inconclusive results are not listed. Calls of active or inactive are those of the source. Calls follow the shape of the dose curve; as a rule, active = well fitted inhibition curve with a large enough effect; inconclusive = small, poorly fitted or top-dose-only effect; inactive = flat fitted curve, though single readings scatter.
Labels: active, inactive

# compound, assigned-label
rows = [
    ("CN1CCC(Nc2ncc3ncnc(Nc4ccc(F)c(Cl)c4)c3n2)CC1", "active"),
    ("CCCCCCCCCCCCCCCC[n+]1ccccc1", "active"),
    ("CCCCCCCCCCCCCC[N+](C)(C)C", "active"),
    ("O=S(=O)(O)c1ccc2nc(-c3ccccc3)[nH]c2c1", "inactive"),
    ("Nc1ncnc2nc[nH]c12", "inactive"),
    ("Nc1ccc2cc3ccc(N)cc3nc2c1", "active"),
    ("O=C(Nc1ccc(Cl)cc1)Nc1ccc(Cl)c(Cl)c1", "active"),
    ("CN1CCCN(C(c2ccccc2)c2ccc(Cl)cc2)CC1 (centres undefined)", "active"),
    ("CCCCCCCCCCCCCCCC[N+](C)(C)Cc1ccccc1", "active"),
]

====

# Tested on: HEK293
# procedure-details: Cytotoxic Profiling of Annotated Libraries Using Quantitative High-Throughput Screening (AID 1296008); note: % is set by controls: 0 for no effect and ±100 for the full control effect; nearly all actives have a fitted effect of over 60% in size
# protocol-conditions: Five cell lines viability, CellTiter-Glo ATP luminescence, 48-72 h; active compounds read low
# Experimental: Cell-based phenotypic screening is a commonly used approach to discover biological pathways, novel drug targets, chemical probes and high-quality hit-to-lead molecules. […] A pintool (Kalypsys) was used to transfer 23 nL of compound solution to the 1536-well assay plates. […] Plates were left at room temperature for 10 min before imaging the ATP-coupled luminescence using a ViewLux microplate imager (PerkinElmer, Waltham, MA).
Inconclusive results are not listed.
Some compounds, each annotated with its measured max response.

# compound, max response [%]
records = [
    ("NC(=O)COCCN1CCN(C(c2ccccc2)c2ccc(Cl)cc2)CC1 (configuration not stated)", 1.14),
    ("CN(C(=O)C(Cl)Cl)c1ccc(OC(=O)c2ccco2)cc1", -3.53),
    ("CCC(C(=O)NC(=O)NC(C)=O)c1ccccc1 (configuration not stated)", -0.744),
    ("CCOC(=O)C(=O)CCCCCCl", -7.06),
    ("CC(C)CCCC(C)NCCC(C)C (configuration not stated)", -7.84),
    ("CCCCCCCC(=O)[O-].CCCCCCCC(=O)[O-].[Zn+2]", -2.75),
    ("O=C(OCC(COC(=O)c1cccnc1)(COC(=O)c1cccnc1)COC(=O)c1cccnc1)c1cccnc1", -3.93),
    ("Cc1sccc1Br", -4.49),
    ("CC(=O)OC[C@H]1O[C@@H](OC(C)=O)[C@H](OC(C)=O)[C@@H]1OC(C)=O", 1.73),
    ("CN1CCC(=C2c3ccccc3CCc3cccnc32)CC1", 2.67),
    ("C[C@H]1C[C@H](O)c2ccsc2S1(=O)=O", 3.47),
    ("CCCCCOc1ccc(C2SC(=O)NC2=O)cc1OCC (configuration not stated)", 3.99),
]
